target: T1, HLA-A*02:01 class I complex (conditional p*HLA*02:01, biotinylated heavy chain with beta2-microglobulin) (human, biotinylated heavy chain); experiment: UV peptide exchange, HLA class I ELISA, % of Pos peptide;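 note: Streptavidin-captured HLA complexes after exchange detected via HRP anti-human B2M antibody, absorbance read, colour scales with intact complex, normalized to exchange control peptide as 100%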
T1 construct: UV-labile peptide p* is cleaved and exchanged for the test peptide; also called HLA 2.1
Entries annotated with measured Exch II (%)

# BINDER, Exch II (%)
data = [
    ("VLSDAISAL (also called M123; SOX17_S40316) [SOX17_S403I6 mimic peptide VLSDAISAL]", 82.6),
    ("YQGSYGFLL (also called M200) [TP53.R110L mutant peptide YQGSYGFLL]", 9.6),
    ("YQGSYGFLV (also called M202) [TP53_R110L4 mimic peptide YQGSYGFLV]", 45.6),
    ("MMFSKRHWV (also called M013) [CIC_R215W7 mimic peptide MMFSKRHWV]", 72.6),
    ("RLIHRDLAV (also called M242) [ERBB2_V842I5 mimic peptide RLIHRDLAV]", 77.3),
    ("KMYPVQLWV (also called M132) [TP53_C141Y3 mimic peptide KMYPVQLWV]", 81),
    ("YMDCGIHSV (also called M023) [CTNNB1_S33C6 mimic peptide YMDCGIHSV]", 115),
    ("GMAPPQYLV (also called M152) [TP53_H193Y6 mimic peptide GMAPPQYLV]", 20.3),
]
